Protocol Details: Pharmacokinetics (tmax) after intravenous and nebulizer inhalation administration, dog
Format: in vivo
Cond: blood, iv, 1 mg/kg, IV, 1 mg/kg, single dose, read-out: Average tmax (converted)
Endpoint Name: Tmax (min)
One number for each entry, in min.

Looking up `CCCCCc1cc(O)c2c(c1)OC(C)(C)[C@@H]1CCC(C)=C[C@@H]21` , I found its Tmax recorded as 1.8

----------
Protocol Details: Pharmacokinetics (tmax) after intravenous and nebulizer inhalation administration, dog
Assay type: in vivo
Cond: blood, inhaled or intranasal, 2 mg/kg, inhalation, 2 mg/kg, 8 minutes exposure, single dose, tmax minus duration of exposure, read-out: App. calc. tmax (converted)
Endpoint Name: Tmax (min)
Answers are plain numbers, in min.

Looking up `CCCCCc1cc(O)c2c(c1)OC(C)(C)[C@@H]1CCC(C)=C[C@@H]21` , I found its Tmax recorded as 7.6
